- ASSAY PROTOCOL: Metabolic stability test
- Assay type: in vitro ADME, human
- Set-up: key: % remaining vs amount at 0 min (=100%)
- SETTINGS: compound 0.5 μmol/L, human liver microsomes 0.5 mg protein/mL, NADPH, 37° C., 30 minutes; amount at 0 minutes defined as 100%
Use YES when the recorded residual rate is no lower than 80; use NO when it is lower.

CCN1C(=O)c2c(O)c(=O)c(C(=O)NCc3ccc(F)cc3F)cn2N2CC[C@@H](C)C[C@@H]12 [II-023] = YES
CCN1C(=O)c2c(O)c(=O)c(C(=O)NCc3ccc(F)nc3F)cn2N2C[C@@H]3CC[C@@H](O3)[C@@H]12 [II-157] = YES
CCN1C(=O)c2c(O)c(=O)c(C(=O)NCc3c(F)cc(F)cc3F)cn2N2C[C@@H](C)C[C@@H]12 [II-049] = YES
CCN1C(=O)c2c(O)c(=O)c(C(=O)NCc3c(F)cc(F)cc3F)cn2N2C[C@@H]3CC[C@@H](C3)[C@@H]12 [II-015] = NO

stdin: Would you say CC(C)N1C(=O)c2c(O)c(=O)c(C(=O)NCc3ccc(F)cc3F)cn2N2CCOC[C@@H]12 [II-026] shows residual rate at minimum 80?
stdout: YES

stdin: Does CN1C(=O)c2c(O)c(=O)c(C(=O)NCc3ccc(F)cc3F)cn2N2CCCC[C@@H]12 [Compound I-015] have a reported residual rate of at least 80?
stdout: YES

stdin: Is residual rate at least 80? Consider CCN1C(=O)c2c(O)c(=O)c(C(=O)NCc3ccc(F)cc3F)cn2N2C[C@@H](COC)C[C@@H]12 [II-041]
stdout: YES

stdin: Check if residual rate >= 80 (inclusive). Item: CN1C(=O)c2c(O)c(=O)c(C(=O)NCc3cccc(F)c3F)cn2N2CCCC[C@@H]12 [II-104]
stdout: YES

stdin: Given the entry CCN1C(=O)c2c(O)c(=O)c(C(=O)NCc3ccc(F)cc3F)cn2N2C[C@@H]3CCC[C@@H](C3)[C@@H]12 [II-018] , answer whether its residual rate meets or surpasses 80.
stdout: NO

stdin: Reported residual rate reaches at least 80 for CN1C(=O)c2c(O)c(=O)c(C(=O)NCc3cccc(Cl)c3F)cn2N2C[C@@H]3CCC[C@@H](C3)[C@@H]12 [II-153] ?
stdout: NO

stdin: Decide: is the reported value of residual rate for C[C@H]1CC[C@H]2N(C)C(=O)c3c(O)c(=O)c(C(=O)NCc4ccc(Cl)cc4F)cn3N2C1 [II-090] equal to or greater than 80?
stdout: YES

stdin: Threshold query (residual rate >= 80) on CCN1C(=O)c2c(O)c(=O)c(C(=O)NCc3ccc(F)cc3F)cn2N2CCCC[C@@]12C [Compound I-006]
stdout: YES

stdin: Is residual rate for CCN1C(=O)c2c(O)c(=O)c(C(=O)NCc3ccc(F)cc3F)cn2N2C[C@@H]3CC[C@@H](O3)[C@@H]12 [II-102] at or above 80?
stdout: YES

stdin: // inclusive: residual rate at least 80? input: CC(C)N1C(=O)c2c(O)c(=O)c(C(=O)NCc3ccccc3F)cn2N2C[C@@H]3CC[C@@H](O3)[C@@H]12 [II-013]
stdout: YES
